assay name: qHTS Assay for Lipid Storage Modulators in Drosophila S3 Cells
run parameters: BODIPY lipid droplet fluorescence, 18-24 h, cells fed with added oleic acid; series mostly up to 46.1 µM
Among all 320,000 compounds or so, about 2,100 (0.66%) were called active. Not shown: some 53% with an inconclusive outcome. Calls follow the shape of the dose curve; as a rule, active = well fitted inhibition curve with a large enough effect in the signal ratio, with a control signal flat (not every such curve was filed as active); inconclusive = small, poorly fitted or top-dose-only effect, or effect the other way, or a change in a side signal; inactive = flat fitted curve, though single readings scatter; the % refers to the signal ratio. This is one part of a sample in which actives are shown more often than they occur.
Hi! Could you answer with just one of these? 1.0 for active, 0.0 for inactive

Completed entries (count: 4):
O=C(O)c1cc2ncc(-c3[nH]ncc3[N+](=O)[O-])cn2n1 | 0.0
CCOc1ccc(CCNC(=O)c2ccc(OCc3c(C)noc3C)cc2)cc1OCC | 1.0
CCC1(c2ccc(F)cc2)NC(=O)N(CC(=O)c2cc(C)n(C3CC3)c2C)C1=O (stereo not given) | 0.0
Cc1noc(C)c1COc1ccc(C(=O)NCCc2ccc(S(N)(=O)=O)cc2)cc1 | 0.0

stdin: Hi team, can someone confirm the assay call for CCOc1ccc(-n2cnnn2)cc1S(=O)(=O)NCCc1ccc(OC)c(OC)c1 ?
stdout: 0.0

* * *

assay name: qHTS Assay for Lipid Storage Modulators in Drosophila S3 Cells;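 as to cell number change: cells counted by Cell Tracker Red CMTPX staining in the red channel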
run parameters: BODIPY lipid droplet fluorescence, 18-24 h, cells fed with added oleic acid; measured here: cell count max response
Screen size: about 320,000 compounds; about 2,100 (0.66%) were called active. Another 53% or so got no clear call; they are omitted. Shown is part of a subset that was picked to be rich in actives.
quantity: cell number change (%)
Provide only the numeric value, understood in %.

// recorded cell number change for COC(C(=O)Nc1ccnn1C1CCN(Cc2ccccn2)CC1)c1ccccc1 (stereo unspecified) : -9.38

// recorded cell number change for COc1ccccc1/C=C/C1C(C(=O)OCC(C)C)=C(C)N=C2SCCC(=O)N21 (stereo unspecified) : 9.42

* * *

assay name: qHTS Assay for Lipid Storage Modulators in Drosophila S3 Cells
run parameters: BODIPY lipid droplet fluorescence, 18-24 h, cells fed with added oleic acid; series mostly up to 46.1 µM
Out of some 320,000 compounds screened, about 2,100 (0.66%) were called active. Inconclusive results (about 53%) are left out. Calls come from the whole dose curve; as a rule, active = well fitted inhibition curve with a large enough effect in the signal ratio, with a control signal flat (not every such curve was filed as active); inconclusive = small, poorly fitted or top-dose-only effect, or effect the other way, or a change in a side signal; inactive = flat fitted curve, though single readings scatter; the % refers to the signal ratio. This is one part of a sample in which actives are shown more often than they occur.
Hi! Could you answer with just one of these? true (1) for active, false (0) for inactive

Completed entries (count: 3):
O=C(NCc1ccccn1)C1CCN(S(=O)(=O)c2cnc[nH]2)CC1 | false (0)
COC(=O)CNC(=O)C1CCN(S(=O)(=O)c2cnc[nH]2)CC1 | true (1)
Cn1c(/N=C/c2c[nH]c3ccccc23)nc2ccccc21 | false (0)

stdin: Hi team, can someone confirm the assay call for COc1ccc(CCNC(=O)C2CCN(S(=O)(=O)c3cnc[nH]3)CC2)cc1OC ?
stdout: false (0)

stdin: Hi team, can someone confirm the assay call for COc1ccccc1CNC(=O)C1CCCN(S(=O)(=O)c2cnc[nH]2)C1 (stereo unspecified) ?
stdout: false (0)

stdin: Hi team, can someone confirm the assay call for Cc1ccc(C(=O)C[n+]2cc(Br)cc(Br)c2)cc1[N+](=O)[O-] ?
stdout: false (0)

stdin: Hi team, can someone confirm the assay call for Cn1c(-c2sc3cc(C(F)(F)F)cnc3c2-c2cccs2)n[nH]c1=S ?
stdout: false (0)

stdin: Hi team, can someone confirm the assay call for O=C(C1CCN(S(=O)(=O)c2cnc[nH]2)CC1)N1CCN(Cc2ccc3c(c2)OCO3)CC1 ?
stdout: true (1)

* * *

assay name: qHTS Assay for Lipid Storage Modulators in Drosophila S3 Cells;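 as to cell number change: cells counted by Cell Tracker Red CMTPX staining in the red channel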
run parameters: BODIPY lipid droplet fluorescence, 18-24 h, cells fed with added oleic acid; measured here: cell count max response
Hit rate of the full screen: of about 320,000 compounds, about 2,100 (0.66%) were called active. Not shown: some 53% with an inconclusive outcome. What follows is part of a selection rich in actives, with near analogues and random picks from the rest.
quantity: cell number change (%)
Provide only the numeric value, understood in %.

Reference set, count: 5
O=C(CSc1nncs1)Nc1ccc(Cl)cn1 | -5.79
O=C(Nc1cccc(NC(=O)c2ccccc2[N+](=O)[O-])n1)c1ccccc1[N+](=O)[O-] | -14.1
O=C(Nc1cc2c(cc1Br)OCCO2)c1cccnc1 | -16.4
CC12CCC(=O)C=C1CCC1C2C(=O)CC2(C)C1CCC2(O)C(=O)CO (stereo not given) | -13.5
CC(=O)OCC(=O)[C@@]1(O)CC[C@H]2[C@@H]3CCC4=CC(=O)CC[C@]4(C)[C@H]3C(=O)C[C@@]21C | 11.1

// recorded cell number change for Cc1ccc(NC(=O)c2ccc(Cl)c(NC(=O)c3cccs3)c2)cc1 : 17.6

// recorded cell number change for OC(CNCc1cccnc1)COc1ccc2ccccc2c1 (stereo not given) : -3.7

// recorded cell number change for COc1ccc(C(=O)NNC(=O)COc2ccc(Cl)cc2)c(OC)c1 : 4.95

// recorded cell number change for COc1ccc(CCNC(=O)C2CC3Cn4c(nc5ccccc54)C3N2C)cc1 (stereo not given) : -10.7

// recorded cell number change for Cc1cc(C)cc(C(=O)Nc2ccc(NC(=O)c3cccs3)cc2)c1 : 17.7

* * *

cell number change overview
assay name: qHTS Assay for Lipid Storage Modulators in Drosophila S3 Cells;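 as to cell number change: cells counted by Cell Tracker Red CMTPX staining in the red channel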
run parameters: BODIPY lipid droplet fluorescence, 18-24 h, cells fed with added oleic acid; measured here: cell count max response
From the text: NIH Molecular Libraries Probe Production Centers Network [MLPCN] NIH Chemical Genomics Center [NCGC] […] Triacsin C (Sigma-Aldrich T-4540), an inhibitor of long-chain fatty acyl CoA synthetase that blocks synthesis of triglycerides, was used as a positive control for lipid under-storage. […] Fluorescence was detected by excitation of the fluorophores with a 488-nm laser on an Acumen Explorer (TTP Lab Tech). […] Cells were detected using channel 3 (575-640 nm) with 5-um width and 100-um depth filters. […]
Among all 320,000 compounds or so, about 2,100 (0.66%) were called active. Inconclusive results (about 53%) are left out. For the sample, actives were picked, then their nearest neighbours and some compounds at random.
Provide only the numeric value, understood in %.

O=C(Cc1ccc([N+](=O)[O-])cc1)NC(C(=O)O)C(O)c1cccc([N+](=O)[O-])c1 (stereo not given) | -5.25
Cc1ccccc1NS(=O)(=O)c1ccc(NS(=O)(=O)c2cccs2)cc1 | 22.7
Cc1cc(=O)oc(C)c1C(=O)NCCCN1CCN(c2ccc(F)cc2)CC1 | 2.43
CC(c1ccccc1)n1c(CCCO)nc2ccccc21 (stereo not given) | -13.2
O=C(c1cc(-c2ccc3c(c2)OCO3)on1)N1CCN(c2ccc(F)cc2)CC1 | 27.5
CC(C)(C)C#CCn1c(/C=[N+](\[O-])C2CCCCC2)nc2ccccc21 | -20.4
O=S(=O)(Nc1ccc(F)cc1)c1ccc(NS(=O)(=O)c2cccs2)cc1 | 5.22
COc1ccccc1N1CCN(C(=O)c2c(C)cc(=O)oc2C)CC1 | -3.57

// recorded cell number change for Cc1ccc(-c2nnnn2C2C/C(=N\NC(N)=S)C3OCC2O3)cc1 (stereo not given) : -15.7

// recorded cell number change for CCCCN(C(=O)CCC(=O)OCC(=O)NCc1ccccc1)c1c(N)n(CCC)c(=O)[nH]c1=O : -13.8

* * *

assay name: qHTS Assay for Lipid Storage Modulators in Drosophila S3 Cells
run parameters: BODIPY lipid droplet fluorescence, 18-24 h, cells fed with added oleic acid; series mostly up to 46.1 µM
Screen size: about 320,000 compounds; about 2,100 (0.66%) were called active. Roughly 53% stayed inconclusive and do not appear here. The call rests on the fitted dose curve; in most records, active means well fitted inhibition curve with a large enough effect in the signal ratio, with a control signal flat (not every such curve was filed as active); inconclusive means small, poorly fitted or top-dose-only effect, or effect the other way, or a change in a side signal; inactive means flat fitted curve, though single readings scatter; the % refers to the signal ratio. What follows is part of a selection rich in actives, with near analogues and random picks from the rest.
Hi! Could you answer with just one of these? active, inactive

Completed entries (count: 3):
CCCCn1c(N)c(N(CC(C)C)C(=O)c2cnccn2)c(=O)[nH]c1=O | inactive
O=C(NCCN1CCOCC1)c1sc2ccccc2c1Cl | inactive
COC(CNC(=O)CN1CCN(Cc2ccc(F)cc2Cl)C1=O)OC | inactive

stdin: Hi team, can someone confirm the assay call for CCN(CC(=O)Nc1ccc(OC)cc1)C(=O)CCS(=O)(=O)c1ccc(C)cc1 ?
stdout: inactive

stdin: Hi team, can someone confirm the assay call for O=C(CSc1nc2ccccc2c(=O)[nH]1)Nc1ccc(S(=O)(=O)N2CCCC2)cc1 ?
stdout: inactive

stdin: Hi team, can someone confirm the assay call for CCN1c2ccc(S(=O)(=O)N3CCOCC3)cc2N(Cc2ccc(OC)cc2)C1C (stereo not drawn) ?
stdout: inactive

* * *

cell number change overview
assay name: qHTS Assay for Lipid Storage Modulators in Drosophila S3 Cells;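 as to cell number change: cells counted by Cell Tracker Red CMTPX staining in the red channel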
run parameters: BODIPY lipid droplet fluorescence, 18-24 h, cells fed with added oleic acid; measured here: cell count max response
Screen size: about 320,000 compounds; about 2,100 (0.66%) were called active. Inconclusive results (about 53%) are left out. This excerpt belongs to a sample that is enriched for actives.
Provide only the numeric value, understood in %.

// recorded cell number change for O=C(O)c1cccc(NC(=S)NC(NC(=O)c2cccc([N+](=O)[O-])c2)C(Cl)(Cl)Cl)c1 (stereo not drawn) : -10.1

// recorded cell number change for COc1ccc(/C=C2/Sc3ccc(C(=O)N4CCc5ccccc5C4)cc3NC2=O)cc1 : 0.0626

// recorded cell number change for Cc1ccc(N2C(=O)C(Cl)=C(N3CCOCC3)C2=O)c(C)c1 : -6.56

// recorded cell number change for O=C(Nc1ccc(N2CCCC2)c(Cl)c1)c1ccc([N+](=O)[O-])o1 : 2.06
